- EXPERIMENTAL SYSTEM: human Serotonin, 5-Hydroxytryptamine Receptor 7 (5HT7), HTR7 (gene 3363)
- TEST METHOD NOTES: NVS_GPCR_h5HT7: NovaScreen (NVS) G Protein-Coupled Receptor Assay for human Serotonin, 5-Hydroxytryptamine Receptor 7 (5HT7) (AID 2283255);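 note: hits reduce specific radioligand binding relative to DMSO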
- Description: NVS_GPCR_h5HT7 is a biochemical, single-readout assay that uses extracted gene-proteins from CHO in a cell-free assay. Measurements were taken 1 hour after chemical dosing in a 96-well plate.NVS_GPCR_h5HT7 is one of one assay component(s) measured or calculated from the NVS_GPCR_h5HT7 assay. […] This assay endpoint, NVS_GPCR_h5HT7, was analyzed in the positive analysis fitting direction relative to DMSO as the negative control and baseline of activity. […]
Inconclusive results are not listed. Active and inactive are the calls of the source. Rule for the calls: active = hit-call score of the fitted dose curve at least 0.9, where 1 is the maximum; inconclusive = response in the unintended direction; inactive = score below 0.9.
Permitted responses: active, inactive

Examples with answers:
COC(=O)N(OC)c1ccccc1COc1ccn(-c2ccc(Cl)cc2)n1: active
C#CCOS(=O)OC1CCCCC1Oc1ccc(C(C)(C)C)cc1 (centres undefined): active
Oc1ccccc1-c1ccccc1: inactive

Now let's try a different one.
Q. Status in this test for CO/C=C(/C(=O)OC)c1ccccc1Oc1cc(Oc2ccccc2C#N)ncn1 ?
A. active

Where do these numbers come from? They come from PubChem BioAssay (EPA / NIEHS).
